system: Hepatitis C virus; assay: Antiviral activity against HCV genotype 1b Con1 harboring HCV genotype 1a H77 NS3 D168A mutant infected in human HuH7 cells assessed as inhibition of viral replication after 96 hrs by luciferase reporter gene assay; assay type: functional, organism-based, Hepacivirus hominis; conditions: isolate Con1, Huh-7, 96 h
outcome.measure: EC50

Before answering, review these 5 worked examples.
• C=C[C@@H]1C[C@]1(NC(=O)[C@@H]1C[C@@H](Oc2nc3cc(OC)ccc3nc2Cl)CN1C(=O)[C@@H](NC(=O)OC1CCCC1)C(C)(C)C)C(=O)NS(=O)(=O)C1(C)CC1 = 25 nM
• C=C[C@@H]1C[C@]1(NC(=O)[C@@H]1C[C@@H](Oc2nc3cc(OC)ccc3nc2C)CN1C(=O)[C@@H](NC(=O)OC1CCCC1)C(C)(C)C)C(=O)NS(=O)(=O)C1CC1 = 101 nM
• C=C[C@@H]1C[C@]1(NC(=O)[C@@H]1C[C@@H](Oc2nc3cc(OC)ccc3nc2Cl)CN1C(=O)[C@@H](NC(=O)OC(C)(C)C)C(C)(C)C)C(=O)NS(=O)(=O)C1(C)CC1 = 30 nM
• C=C[C@@H]1C[C@]1(NC(=O)[C@@H]1C[C@@H]2CN1C(=O)[C@H](C(C)(C)C)NC(=O)O[C@@H]1C[C@H]1CCCCCc1nc3ccc(OC)cc3nc1O2)C(=O)NS(=O)(=O)C1(C)CC1 = 11 nM
• C=C[C@@H]1C[C@]1(NC(=O)[C@@H]1C[C@@H](Oc2nc3cc(OC)ccc3nc2CC)CN1C(=O)[C@@H](NC(=O)OC(C)(C)C)C(C)(C)C)C(=O)NS(=O)(=O)C1CC1 = > 500 nM

Could you tell me which EC50 is on file for C=C[C@@H]1C[C@]1(NC(=O)[C@@H]1C[C@@H](Oc2nc3cc(OC)ccc3nc2C)CN1C(=O)[C@@H](NC(=O)OC1CCCC1)C(C)(C)C)C(=O)NS(=O)(=O)C1(C)CC1 ? 45 nM

Please answer likewise for C=C[C@@H]1C[C@]1(NC(=O)[C@@H]1C[C@@H](Oc2nc3cc(OC)ccc3nc2Cl)CN1C(=O)[C@@H](NC(=O)OC1CCCC1)C(C)(C)C)C(=O)NS(=O)(=O)C1CC1 50 nM

Thanks! And C=C[C@@H]1C[C@]1(NC(=O)[C@@H]1C[C@@H](Oc2nc3cc(OC)ccc3nc2Cl)CN1C(=O)[C@@H](NC(=O)OC(C)(C)C)C(C)(C)C)C(=O)NS(=O)(=O)C1CC1 ? 38 nM

###

target: Hepatitis C virus serine protease, NS3/NS4A (Hepatitis C virus, UniProt A3EZI9+D2K2A8, D168A); experiment: Inhibition of HCV genotype 1a NS3/4A protease D168A mutant expressed in Escherichia coli BL21(DE3) using Ac-DE-Dap(QXL 520)-EE-Abu-psi-[COO]AS-C(5-FAMsp)-NH2 as substrate preincubated for 1 hr followed by substrate addition
# log10 Ki per record follows
Scale: log10; quantity: Ki; unit before log: nM

Below are worked cases with known answers.
- C=C[C@@H]1C[C@]1(NC(=O)[C@@H]1C[C@@H](Oc2nc3cc(OC)ccc3nc2Cl)CN1C(=O)[C@@H](NC(=O)OC(C)(C)C)C(C)(C)C)C(=O)NS(=O)(=O)C1(C)CC1: 2.08
- CCc1nc2ccc(OC)cc2nc1O[C@@H]1C[C@H]2C(=O)N[C@]3(C(=O)NS(=O)(=O)C4CC4)C[C@H]3/C=C\CCCCC[C@H](NC(=O)OC(C)(C)C)C(=O)N2C1: 1.96
- C=C[C@@H]1C[C@]1(NC(=O)[C@@H]1C[C@@H](Oc2nc3cc(OC)ccc3nc2CC)CN1C(=O)[C@@H](NC(=O)OC1CCCC1)C(C)(C)C)C(=O)NS(=O)(=O)C1(C)CC1: 2.16
- C=C[C@@H]1C[C@]1(NC(=O)[C@@H]1C[C@@H](Oc2nc3cc(OC)ccc3nc2C)CN1C(=O)[C@@H](NC(=O)OC(C)(C)C)C(C)(C)C)C(=O)NS(=O)(=O)C1CC1: 2.46
- C=C[C@@H]1C[C@]1(NC(=O)[C@@H]1C[C@@H](Oc2nc3cc(OC)ccc3nc2C(C)C)CN1C(=O)[C@@H](NC(=O)OC1CCCC1)C(C)(C)C)C(=O)NS(=O)(=O)C1CC1: 2.99

Which log10 Ki value is on record for C=C[C@@H]1C[C@]1(NC(=O)[C@@H]1C[C@@H](Oc2nc3cc(OC)ccc3nc2C)CN1C(=O)[C@@H](NC(=O)OC(C)(C)C)C(C)(C)C)C(=O)NS(=O)(=O)C1(C)CC1 ? 2.42

Also need C=C[C@@H]1C[C@]1(NC(=O)[C@@H]1C[C@@H](Oc2nc3cc(OC)ccc3nc2CC)CN1C(=O)[C@@H](NC(=O)OC(C)(C)C)C(C)(C)C)C(=O)NS(=O)(=O)C1CC1 , thanks. 2.81

// data source = ChEMBL document CHEMBL4196119
